target.of.assay: D(1A) dopamine receptor (Homo sapiens)
method.summary: D1 CRE-luciferase signal change, two-sided – cell-based, HEK293 D1, dopamine EC30, D1 allosteric modulator project, primary screen (AID 641)
run.conditions: dopamine EC30 potentiation, at 10 µM, actives deviate in either direction
The whole screen tested about 58,000 compounds, of which about 3,400 (5.9%) were called active.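 How the source made its calls: active means luminescence count or its row- and column-corrected plate score outside the 99.7% band of the plate's sample wells, on either side; inactive means the rest.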 Many of the other results were omitted from the sample, so actives are more common in it than they were.
Thanks in advance; please answer with one of these: t (active), f (inactive)

Past entries and their recorded results:
CCOC(=O)C(C)Oc1cccc2c(=O)n(CC(=O)N3CCc4ccccc43)ccc12 (stereo unspecified) = f
CCOC(=O)Cn1c(=O)oc2cc(S(=O)(=O)N(C)Cc3ccco3)ccc21 = f
c1c2c(cc3sc(N4CCCCC4)nc13)OCCO2 = t
CC1(C)CC(=O)C(C=NCc2cccnc2)=C(O)C1 = f
COc1ccc(C(=O)n2nc(-c3ccc(Cl)cc3)nc2N)cc1OC = f

Enquiry: Given COc1ccc(-c2nc(CS(=O)CC(=O)N3CCc4ccccc4C3)c(C)o2)cc1 (stereo unspecified) , state the outcome it received in this test.
Return: f

Enquiry: Given "O=C(Nc1nc2cc3c(cc2s1)OCCO3)c1cccc(S(=O)(=O)N2CCOCC2)c1" , state the outcome it received in this test.
Return: f

Enquiry: Given "COc1cc(-c2nc(-c3ccncc3)no2)cc(OC)c1OC" , state the outcome it received in this test.
Return: f

Enquiry: Given "COC(=O)c1ccc(OC(=O)c2nn(C)cc2Cl)c(OC)c1" , state the outcome it received in this test.
Return: t

Enquiry: Given "COc1ccc(C(=O)n2nc(-c3ccc(C)cc3)nc2N)cc1OC" , state the outcome it received in this test.
Return: f

Enquiry: Given "COc1ccc(-c2noc(-c3cccc(OC)c3OC)n2)cc1OC" , state the outcome it received in this test.
Return: f

* * *

target.of.assay: D(1A) dopamine receptor (Homo sapiens)
method.summary: D1 CRE-luciferase signal change, two-sided – cell-based, HEK293 D1, dopamine EC30, D1 allosteric modulator project, primary screen (AID 641)
run.conditions: dopamine EC30 potentiation, at 10 µM, actives deviate in either direction
The campaign covered roughly 58,000 compounds. About 3,400 (5.9%) were called active. The sample holds actives, similar compounds and a random draw of the others, so the mix is not that of the screen.
List of B-score values.

c1ccc(COc2nsnc2N2CCOCC2)cc1 = 5.03 (active)

Looking up "CCn1c2c(c3ccc(OC)cc31)CCCC2=O" , I see its B-score listed as 0.923 (inactive)

Looking up "c1nc(COc2nsnc2N2CCOCC2)cs1" , I see its B-score listed as 1.59 (inactive)

Looking up "CC(C)OC(=O)CN1C(=O)c2ccccc2C1=O" , I see its B-score listed as 0.49 (inactive)

Looking up "CCN(CC)C(=O)CSc1nnc(-c2cccc(OC)c2)o1" , I see its B-score listed as -0.393 (inactive)

Looking up "CCOCCc1c(O)nc(SCC(=O)NCc2ccco2)[nH]c1=O" , I see its B-score listed as 1.04 (inactive)

Looking up "O=C(COC(=O)c1ccc(Oc2ccccc2)cc1)Nc1nnc(-c2ccccc2)o1" , I see its B-score listed as -1.16 (inactive)

Looking up "CCc1nc2ccccc2n(CCOCCOCCn2c(=O)c(CC)nc3ccccc32)c1=O" , I see its B-score listed as 2.08 (inactive)

Looking up CSCCC1NC2(C(=O)Nc3ccc(Cl)cc32)[C@@H]2C(=O)N(C3CCCC3)C(=O)[C@H]12 (stereo partly specified) , I see its B-score listed as 0.395 (inactive)

Looking up "COc1cccc(-c2nnc(NC(=O)c3ccc(S(=O)(=O)N(CC(C)C)CC(C)C)cc3)o2)c1" , I see its B-score listed as -2.79 (active)

Looking up "CCCCc1nc2ccccc2c(=O)n1NC(=O)c1c(O)c2cccc3c2n(c1=O)CC3" , I see its B-score listed as -0.934 (inactive)
